Tested on: RAW-Dual (murine macrophage reporter line)
procedure_text: viability score (confluency relative to resting cells, overnight) (fraction); higher = more viable, active = viable (0.7 or more)
setup_conditions: modulator concentration 10 µM
result_type: viability score

Worked examples, 3 compounds total:
- compound: "CCCC1CCC(c2ccc(C(=O)NNC(=O)c3ccc(C4CCC(CCC)CC4)cc3)cc2)CC1 (stereo not given)"
  result_type: "viability score"
  experimental_result: "1.01 (active)"
- compound: "COc1ccc(C2Oc3cc(OC)cc(OC)c3CC2O)cc1 (stereo not given)"
  result_type: "viability score"
  experimental_result: "1.01 (active)"
- compound: "Cc1nc(-c2ccc(S(=O)(=O)NC3CCc4nc(N(C)C)ncc4C3)cc2)co1 (stereo not given)"
  result_type: "viability score"
  experimental_result: "0.919 (active)"

Could I get viability score for every one of these entries?
1. CCSC1=C(C#N)C2(CCCC2)C(C#N)C(=O)N1 (stereo not given)
2. Cc1ccc(C)n1-c1ccc(C(=O)OCC(=O)c2ccc([N+](=O)[O-])cc2)cc1

OUTPUT:
1: 0.988 (active); 2: 0.976 (active)

Data origin: the supplement of paper PMC10646978
